Catalogue of pIC50 values
system: PDK1 kinase activity in PC3 cells (phospho-T308-PKB); experiment: Cellular testing of PDK1 kinase inhibitors in PC3 cells (Luminex, phospho-T308-PKB); assay type: cell-based; settings: Homo sapiens, PC-3, 0.5 h, 30 min with test substance, serum-free, phospho-T308-PKB by Luminex, read-out: IC50 [PC3 P-PKB Thr308]
pIC50: −log10 of the molar value.

molecule | system-tested | pIC50
Nc1nc(-c2c[nH]c3ncccc23)cc(C2CCCCC2)n1 [Compound A105] | PDK1 kinase activity in PC3 cells (phospho-T308-PKB) | 4.70 to 5.00
CC(C)n1cc(-c2cnc3[nH]cc(-c4cc(C(C)(O)c5ccccc5)nc(N)n4)c3c2)cn1 (stereo not drawn) [Compound A55] | PDK1 kinase activity in PC3 cells (phospho-T308-PKB) | 6.00 to 8.00
CCC[C@@H](O)c1cc(-c2c[nH]c3ncc(-c4cnn(C(C)C)c4)cc23)nc(N)n1 [Compound A91] | PDK1 kinase activity in PC3 cells (phospho-T308-PKB) | 6.00 to 8.00

---

Quick record: pIC50, PDK1 (Homo sapiens, UniProt O15530).
pIC50: −log10 of the molar value.
measured-parameter: pIC50

compound | measured-parameter | result
Nc1nc(CCCCO)cc(-c2c[nH]c3ncccc23)n1 [Compound A45] | pIC50 | 5.00 to 6.00
CC(C)N1CCC(O)(c2cc(-c3c[nH]c4ncc(-c5cnn(C(C)C)c5)cc34)nc(N)n2)CC1 [Compound A114] | pIC50 | 6.00 to 8.00
CC(C)n1cc(-c2cnc3[nH]cc(-c4cc(CCCCO)nc(N)n4)c3c2)cn1 [Compound A40] | pIC50 | 6.00 to 8.00
CCc1cc(-c2c[nH]c3ncc(-c4cnn(Cc5ccc(F)c(F)c5)c4)cc23)nc(N)n1 [Compound A99] | pIC50 | 6.00 to 8.00

---

Record: IC50 reported on PDK1 (Homo sapiens, UniProt O15530).
Sequence (O15530 51-556): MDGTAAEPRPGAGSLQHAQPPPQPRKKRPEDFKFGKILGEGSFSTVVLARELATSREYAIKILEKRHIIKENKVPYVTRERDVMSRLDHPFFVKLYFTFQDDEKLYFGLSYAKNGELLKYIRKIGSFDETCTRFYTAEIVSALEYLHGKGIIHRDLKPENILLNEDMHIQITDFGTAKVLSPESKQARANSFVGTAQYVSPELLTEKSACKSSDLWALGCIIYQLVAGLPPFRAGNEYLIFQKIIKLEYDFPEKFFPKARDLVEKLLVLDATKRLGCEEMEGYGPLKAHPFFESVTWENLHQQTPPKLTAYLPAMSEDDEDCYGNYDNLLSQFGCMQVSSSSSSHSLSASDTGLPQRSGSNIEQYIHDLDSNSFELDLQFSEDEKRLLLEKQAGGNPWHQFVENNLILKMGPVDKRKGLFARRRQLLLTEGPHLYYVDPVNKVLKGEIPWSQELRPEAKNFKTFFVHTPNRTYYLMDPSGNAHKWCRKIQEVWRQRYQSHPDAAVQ
measured-parameter: IC50

compound | system-tested | measured-parameter | result
CCCCc1cc(-c2c[nH]c3ncc(-c4cnn(C5CCNCC5)c4)cc23)nc(NC)n1 | PDK1 (Homo sapiens, UniProt O15530) | IC50 | 0.01 to 1 µM
CCc1cc(-c2c[nH]c3ncc(-c4cnn(CCNC)c4)cc23)nc(N)n1 | PDK1 (Homo sapiens, UniProt O15530) | IC50 | 0.01 to 1 µM
CCc1cc(-c2c[nH]c3ncc(-c4cnn(CC(=O)NC5CC5)c4)cc23)nc(N)n1 | PDK1 (Homo sapiens, UniProt O15530) | IC50 | 0.01 to 1 µM
CCc1cc(-c2c[nH]c3ncc(-c4cnn(C5CCNCC5)c4)cc23)nc(NC)n1 | PDK1 (Homo sapiens, UniProt O15530) | IC50 | 0.01 to 1 µM
CCc1cc(-c2c[nH]c3ncc(-c4cnn(CC(=O)N5CCN(C)CC5)c4)cc23)nc(N)n1 | PDK1 (Homo sapiens, UniProt O15530) | IC50 | 0.01 to 1 µM
CCC(O)c1cc(-c2c[nH]c3ncc(-c4cnn(C(C)C)c4)cc23)nc(N)n1 (centres unmarked) | PDK1 (Homo sapiens, UniProt O15530) | IC50 | 0.01 to 1 µM
CC(C)n1cc(-c2cnc3[nH]cc(-c4cc(CCC(=O)N(C)C)nc(N)n4)c3c2)cn1 | PDK1 (Homo sapiens, UniProt O15530) | IC50 | 0.01 to 1 µM
CCCCc1cc(-c2c[nH]c3ncc(-c4cnn(C5CCN(C(C)=O)CC5)c4)cc23)nc(N)n1 | PDK1 (Homo sapiens, UniProt O15530) | IC50 | 0.01 to 1 µM
